target or test system: γ-secretase (Aβ42) in H4/sw cell line (Homo sapiens, UniProt P49768+P49810)
method notes: Aβ42 AlphaLISA dose–response in H4/sw cells
study conditions: read-out: Aβ42 IC50 [nM ± SD]; H4/sw cells, over-night incubation, Aβ42-AlphaLisa, 4–7 independent experiments
Could you please report measured IC50 for the items listed next?
Numbers only, in nM.

1) C[C@H](NC(=O)Cc1cc(F)cc(F)c1)C(=O)N[C@@H]1C(=O)N(C)c2ccccc2-c2ccccc21 [DBZ, dibenzazepine, reference compound]: 0.33
2) CC(C)N1CCCC(c2ccc3[nH]c(C(=O)Nc4cccc(F)c4)cc3c2)C1 (stereo not shown): 207
3) O=C(CCCC[C@@H]1SC[C@@H]2NC(=O)N[C@@H]21)NCCOCCOCCOCCNC(=O)COc1ccc(C(=O)c2ccc(OCC(=O)N3CC[C@@H](Oc4ccc5[nH]c(C(=O)Nc6ccc(F)c(F)c6)cc5c4)C3)cc2)cc1: 128

Then this compound:
Give the measured IC50 of CC(C)N1CCC(Oc2ccc3[nH]c(C(=O)Nc4ccc(F)c(F)c4)cc3c2)C1 (stereo not shown) .
229

---

target or test system: γ-secretase (Aβ42) in H4/sw cell line (Homo sapiens, UniProt P49768+P49810)
method notes: Aβ42 AlphaLISA dose–response in H4/sw cells
assay readout: IC50 (nM)
Numbers only, in nM.

Some molecules with known IC50 results, for comparison:
1) COc1nc(-c2cc(C)c(N[C@@H](C)c3ccc(F)cc3)nn2)ccc1-n1cnc(C)c1 [BPN-15606, reference compound]: 16.9
2) COc1cc(Nc2nc(Cc3ccc(Cl)cc3)cc(C(C)(C)O)n2)ccc1-n1cnc(C)c1 [RO-02, reference compound]: 20.5
3) CC(=O)N1CCCC(c2ccc3[nH]c(C(=O)Nc4cc(F)cc(F)c4)cc3c2)C1 (stereo not shown): 63.3

# input for lookup
Need IC50, item Cc1nsc(N2CC3CCC(C2)C3Nc2nc3c(-c4ccc(F)c(F)c4F)cccn3n2)n1 (stereo not shown)
3.76

---

target or test system: γ-secretase in WT (WT/WT) MEF cells (Mus musculus, UniProt P49769+Q61144)
method notes: Aβ species by Tris-Bicine urea SDS-PAGE/immunoblot, WT/WT MEF cells
study conditions: WT MEF (genotype not given); RO-02 and RO7019009 500 nM, BPN-15606 360 nM, RO5254601 2.5 µM
assay readout: Aβ40 (gel)

1) COc1cc(Nc2nc(Cc3ccc(Cl)cc3)cc(C(C)(C)O)n2)ccc1-n1cnc(C)c1 [RO-02, reference compound]: strong reduction of Aβ40
2) COc1nc(-c2cc(C)c(N[C@@H](C)c3ccc(F)cc3)nn2)ccc1-n1cnc(C)c1 [BPN-15606, reference compound]: strong reduction of Aβ40
3) Cc1nsc(N2CC3CCC(C2)C3Nc2nc3c(-c4ccc(F)c(F)c4F)cccn3n2)n1 (stereo not shown) [RO7019009]: strong reduction of Aβ40

src = paper PMC11837686
